Tested on: OVCAR-5 ovarian
Assay: NCI tumour cell line growth inhibition, 48 h; in the data active means GI50 below about 0.43 µM; inactive means the rest
Mark one answer only. Choices: active, inactive

Input line: Status in this test for Fc1ccc(C2CC(c3cccc(Nc4ccncc4)c3)=NN2c2cc(Cl)cc(Cl)c2)cc1 (centres undefined) ?
Output line: inactive

Input line: Could you check what this test reported for O=S1(=O)N(Cc2ccccc2)[C@@H](Cc2ccccc2)C2O[C@H]2[C@H](Cc2ccccc2)N1Cc1ccccc1 (some centres undefined) ?
Output line: inactive

Input line: // param item: NC1CCCCC1N.O=C([O-])P(=O)([O-])[O-].[Na+].[Pt+4] (centres undefined) ; yields the recorded call
Output line: inactive

Input line: How was Nc1ccccc1NC(=O)CCCCCCC(=O)Nc1ccc2c(c1)/C(=C/c1ccc[nH]1)C(=O)N2 classified in this test?
Output line: inactive

Input line: Per the assay record, what outcome was assigned to CCCCCCCCCCCCCCCC(=O)OCC1OC(n2cnc3c(=S)nc(N)[nH]c32)C(OC(=O)CCCCCCCCCCCCCCC)C1OC(=O)CCCCCCCCCCCCCCC (centres undefined) ?
Output line: inactive

Input line: Per the assay record, what outcome was assigned to Cc1[nH]c(C(=O)Nc2ccc(C(=O)N3CCNCC3)cc2OC(C)C)c(Cl)c1Cl ?
Output line: inactive

Input line: Recorded test outcome, item O=CN1N=C(c2ccc(Nc3ccnc4cc(Cl)ccc34)cc2)CC1c1ccccc1 (centres undefined)
Output line: inactive

Input line: What outcome does the record of this test show for c1cc(C2CCCCC2)ccc1OCCCCCCN1CCNCC1 ?
Output line: inactive

Input line: Can you look up the reported call for O=C1c2ccccc2-c2nccc3cc(Cl)nc1c23 for me?
Output line: inactive

Input line: Please state the recorded outcome for this compound: COc1cc([C@@H]2c3cc4c(cc3C(Br)[C@H]3COC(=O)[C@H]23)OCO4)cc(OC)c1OC (some centres undefined)
Output line: inactive

Input line: Record request — test call for CN(C)c1ccc(C(=O)c2ccc(N(C)C)c(N)c2)cc1N
Output line: inactive

Input line: Just curious, what result did CCOC(=O)c1cc2c(n1Cc1cc(OC)cc(OC)c1)-c1oncc1CCC2 get here?
Output line: active

Input line: Identify the outcome logged in this assay for the compound shown: NC(N)=N/N=C/c1c(-c2cccs2)nc2sccn12
Output line: inactive

Input line: What is the recorded call for this compound in the test? CCN(CC)CCOc1ccc(Nc2ncc3cc(-c4c(Cl)cccc4Cl)c(=O)n(CCOC)c3n2)cc1
Output line: active

----------
System: HCT-15 colon
Assay: NCI tumour cell line growth inhibition, 48 h; in the data active = GI50 below about 0.43 µM; inactive = the rest
Pick one and only one: 1 (active), 0 (inactive)

Input line: Which outcome was entered for the molecule O=C(Cn1c(=O)c(-c2ccccc2)nc2ccccc21)c1cccnc1 in this test?
Output line: 0

Input line: Lab log entry: NC(=O)C(Br)CBr (configuration not stated) — outcome as called in the assay?
Output line: 0

Input line: Hey, what did the test say about Nc1ccccc1NC(=O)CCCCCCC(=O)Nc1ccc2c(c1)/C(=C/c1ccc[nH]1)C(=O)N2 ?
Output line: 0

Input line: What outcome does the record of this test show for N#Cc1c2ccccc2c2n1-c1ccccc1OC(c1ccccc1)C2=O (configuration not stated) ?
Output line: 0

Input line: What was the test verdict on Cc1[nH]c(C(=O)Nc2ccc(C(=O)N3CCNCC3)cc2OC(C)C)c(Cl)c1Cl ?
Output line: 0

Input line: Can you look up the reported call for COc1cc([C@@H]2c3cc4c(cc3C(Br)[C@H]3COC(=O)[C@H]23)OCO4)cc(OC)c1OC (some centres not stated) for me?
Output line: 1

Input line: Just curious, what result did COc1ccc(-c2nsc3c2NC(=O)CC3c2ccc3c(c2)OCO3)cc1 (configuration not stated) get here?
Output line: 0

Input line: Outcome? O=c1[nH]cnc2c1nnn2C1OC(CO)C(O)C1O (configuration not stated)
Output line: 0

Input line: # lookup: test call for O=C(Nc1ccc(Cl)cc1)c1cc2c(cc1O)[nH]c1ccccc12
Output line: 0

Input line: Record request — test call for COc1ccc(C(O)c2cc3c(N)c(C(=O)Nc4cccc(Cl)c4C)sc3nc2C)cc1 (configuration not stated)
Output line: 0

Input line: Check the results log: what was the call for CCCCCCCCCCCCCC[P+](CCCCCC)(CCCCCC)CCCCCC ?
Output line: 1

Input line: Which outcome did this test record for the molecule CCOC(=O)c1c2c(n3ccc(NC(=O)OC(C)(C)C)cc13)C(=O)c1ncccc1C2=O ?
Output line: 1

Where do the numbers come from? From PubChem BioAssay (NCI).
